These entries and their values trace back to PubChem BioAssay.

system: Wnt5a (protein binding on small-molecule microarray); assay: Wnt5a binders on small-molecule microarray, primary screen, biophysical, 635/667 nm fluorescence (AID 1142); conditions: 635 nm fluorescence, higher = more signal;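 also: fluorescence read at 667 nm with signal to noise per printed feature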
endpoint: composite z-score

molecule=COC(=O)CC=C[C@@H](C)[C@H](OCc1cccc(-c2ccccc2)c1)C1CCCCC1 numeric_readout=-0.106
molecule=CON=C[C@@H](C)[C@H](OCc1ccccc1)C(C)C numeric_readout=0.103
molecule=C#CCCCON=C1[C@H]2CCn3c(=O)n(-c4ccccc4)c(=O)n3[C@H]2[C@H](O)[C@@H]2O[C@H]12 numeric_readout=0.0823
molecule=CC(C)=NO[C@H](C)c1cn([C@H](CO)Cc2ccccc2)nn1 numeric_readout=-0.179
molecule=CC[C@@H](c1ccccc1)n1c(=O)n2n(c1=O)[C@H]1[C@H](O)[C@@H]3O[C@@H]3C(=NOC[C@@H](O)COCc3ccco3)[C@H]1CC2 numeric_readout=0.112
molecule=CO[C@@H]1COC(=O)CC=C[C@@H](C)[C@H](OC)COC(=O)[C@@H](C)COC(=O)CC=C[C@H]1C numeric_readout=-0.451
molecule="CCOC(=O)[C@H](CC(C)C)NC(=O)CCC1CC(OC(=O)NCc2cccc3ccccc23)CC2(CCCC(COC(=O)NCCc3ccc(Cl)cc3)O2)O1 (stereo partly drawn)" numeric_readout=0.0502
molecule=COc1cccc([C@@H]2Oc3ccc(OC)cc3C(=O)[C@H]2O)c1 numeric_readout=0.115
